system: 922993-354-T-J3-PDC complex spheroid viability; assay: Anticancer human tumor 922993-354-T-J3-PDC patient-derived endometrial carcinoma cell line growth inhibition [POLQ]; details: curve of first compound; second compound 3.16 µM;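 note: spheroids exposed to the agents for one week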
pIC50: −log10 of the molar value.
Exercise: for every item that follows, state its recorded pIC50.

What value of pIC50 on 922993-354-T-J3-PDC complex spheroid viability does Nc1ccn(C2OC(CO)C(O)C2(F)F)c(=O)n1 (stereo not given) + Nc1ccc(C#CCN(C(=O)Cc2ncc(C(F)(F)F)cc2C(F)(F)F)c2ccc(F)cc2)nn1 have?
> 7.50

What value of pIC50 on 922993-354-T-J3-PDC complex spheroid viability does COc1ccc([C@@H](O)c2cc(-c3ncnc4cc(N5CCOCC5)ccc34)c(F)cc2Cl)nn1 + COC1C(OC(N)=O)C(O)C(Oc2ccc3c(O)c(NC(=O)c4ccc(O)c(CC=C(C)C)c4)c(=O)oc3c2C)OC1(C)C have?
< 5.00

What value of pIC50 on 922993-354-T-J3-PDC complex spheroid viability does COc1cc2cc(C(=O)CCC(=O)O)sc2cc1OC + COC1C(OC(N)=O)C(O)C(Oc2ccc3c(O)c(NC(=O)c4ccc(O)c(CC=C(C)C)c4)c(=O)oc3c2C)OC1(C)C have?
< 5.00

What value of pIC50 on 922993-354-T-J3-PDC complex spheroid viability does CC1COCCN1c1cc(C2(O)CC3CCC(C2)O3)c2cnn(-c3ccn[nH]3)c2n1 (stereo not given) + Cc1cccc(N(C)C(=O)C2C(O)CCN2c2nc(C)cc(C(F)(F)F)c2C#N)c1 have?
6.41

What value of pIC50 on 922993-354-T-J3-PDC complex spheroid viability does CC[C@@]1(O)C(=O)OCc2c1cc1n(c2=O)Cc2cc3c(CN(C)C)c(O)ccc3nc2-1 + Cc1cccc(N(C)C(=O)C2C(O)CCN2c2nc(C)cc(C(F)(F)F)c2C#N)c1 have?
< 7.00
